Values were extracted from PubChem BioAssay (NCI).

TGI by entry:
- System: SF-268 CNS
- assay: NCI tumour cell line growth inhibition, 48 h

Cc1cc(N(CCC#N)CCC#N)ccc1/C=C1N=C(/C=C\c2ccccc2)N(c2ccc(Cl)cc2)C\1=O    > 100 µM
C[C@H]1C=C2[C@@H]3CC(C)(C(=O)O)CC[C@]3(C)CC[C@]2(C)[C@]2(C)CC[C@H]3C(C)(C)[C@@H](OC(=O)c4cccc5c(=O)c6ccccc6[nH]c45)CC[C@]3(C)[C@@H]12 (some centres undefined)    > 100 µM

(Q) Given COc1ccc(N=C2C(=Nc3ccc(OC)cc3)N(c3ccccc3)C(=S)N2N=C=C2Sc3ccccc3N2C)cc1 , state its recorded TGI.
(A) > 100 µM

(Q) Reported TGI, molecule FC(F)(F)c1ccc2nc(Sc3ccccn3)cnc2c1 : ____
(A) > 100 µM

(Q) Form field: reported TGI of CC(C)CN=C(N)N=C(N)N
(A) > 100 µM

(Q) Any idea what TGI was measured for CCCCCCN(N)C(=O)CC#N ?
(A) > 100 µM

(Q) For the molecule shown here, O=C(/C=C/c1csc(-c2ccccc2)n1)NCc1ccc(C(=O)NCc2ccccc2)cc1 , give the reported TGI.
(A) > 100 µM

* * *

Listed below: TGI values for each entry.
- Tested on: A549 NSCLC
- assay: NCI tumour cell line growth inhibition, 48 h

CCC1(COC(NC(=O)c2ccccc2)(C(F)(F)F)C(F)(F)F)COC1    > 100 µM
O=C(CC(=O)Nc1ccccc1)N/N=C/c1cc(N=Nc2ccc(Br)cc2)ccc1O    > 10 µM

Shifting focus to the compound that follows.
(Q) # lookup: TGI of Nc1nc(Cl)c(N)c(NCC2(CO)CC(CCCc3ccccc3)C2)n1 (stereo not drawn)
(A) > 100 µM

* * *

Quick reference: TGI of the listed items.
- Tested on: NCI-H226 lung
- assay: NCI tumour cell line growth inhibition, 48 h

Here is how some compounds turned out for TGI.
Cc1ccc2c(=O)cc(-c3ccc(-c4ccccc4)s3)[nH]c2n1    > 100 µM
C=CCOC(=O)C1C2OC3(C(C(=O)OC)=C2C(=O)OC)c2ccccc2CCC13 (stereo not drawn)    > 10 µM

# input for lookup
(Q) Entry CCOC(=O)C(=O)Nc1cc(Cl)ccc1Cl : reported TGI = ?
(A) > 100 µM

* * *

- System: CCRF-CEM leukemia
- assay: NCI tumour cell line growth inhibition, 48 h
assay_readout: TGI

Reference set, count: 5
COC(=O)c1nc(-c2ccccc2)oc1S(=O)(=O)n1nc(C)cc1N    10.5 µM
CC1(C)N=C(N)N=C(N)N1c1ccc(CCCCc2ccc(S(=O)(=O)F)cc2)c(Cl)c1    17.4 µM
CC1(C)OCC(C(O)C2OC(C)(C)OC2/C=N\O)O1 (configuration not stated)    > 100 µM
CCOc1nc(N)nc(C)c1N=Nc1ccc(Cl)cc1    > 100 µM
O=C(CSC1=NCCN1)Nc1ccccc1    > 100 µM

Now look at this entry.
(Q) Need TGI of Fc1ccccc1C1SCc2nc3cc4ccccc4cc3n21 (configuration not stated) , thanks.
(A) > 100 µM

* * *

TGI overview
- Test system: SK-MEL-28 melanoma
- assay: NCI tumour cell line growth inhibition, 48 h

Solved cases (3 shown):
CC1CN1c1c(C(=O)/C=C/c2ccccc2)c(-c2ccccc2)nn(C)c1=O (stereo not given)    47.5 µM
CC1(C)OC2C(=O)C=C(COCc3ccccc3)C2O1 (stereo not given)    95.4 µM
CCCc1ccc(NCc2cc(OC)c(OC)c(OC)c2)cc1    73.9 µM

(Q) What does the record list as TGI for C[C@@H]1O[C@@H](OC[C@H]2O[C@@H](OCCc3ccc(O)c(O)c3)[C@H](O)[C@@H](O)[C@@H]2OC(=O)/C=C/c2ccc(O)c(O)c2)[C@H](O)[C@H](O)[C@H]1O ?
(A) > 100 µM

(Q) Record request: TGI value, item COc1cc(/C=C/[N+](=O)[O-])cc(Br)c1OC
(A) 6.14 µM

(Q) Would you kindly share the measured TGI for CC1(C)CCC[C@]2(C)[C@@H](C=O)C(C=O)=CC[C@@H]12 ?
(A) > 100 µM

(Q) Look up TGI: Cc1nc2ccccc2c(/C=C/c2ccc(Br)cc2)c1C(=O)/C=C/c1ccccc1
(A) 3.4 µM

* * *

- System: OVCAR-3 ovarian
- assay: NCI tumour cell line growth inhibition, 48 h
assay_readout: TGI

Known TGI results, listed for orientation:
COc1ccc(/C=N/NC(=O)Cn2c(-c3ccc(S(C)(=O)=O)cc3)nc3cc(Cl)ccc32)cc1    > 50 µM
CC[C@@H](/C=C\CCC(=O)C[C@H](O)CCC=C(C)C)O[Si](C(C)C)(C(C)C)C(C)C    > 100 µM
C[C@@H]1O[C@@H](OC[C@H]2O[C@@H](OCCc3ccc(O)c(O)c3)[C@H](O)[C@@H](O)[C@@H]2OC(=O)/C=C/c2ccc(O)c(O)c2)[C@H](O)[C@H](O)[C@H]1O    > 100 µM

(Q) // query TGI value for entry Nc1ccc(C(=O)NN2C(=O)C(Cl)C2c2ccccc2)cc1 (centres undefined)
(A) > 100 µM

* * *

- Tested on: CAKI-1 renal
- assay: NCI tumour cell line growth inhibition, 48 h
assay_readout: TGI

Record excerpt, results attached:
O=C(CSC1=NCCN1)Nc1ccccc1    > 100 µM
C=CCOC(=O)C1C2OC3(C(C(=O)OC)=C2C(=O)OC)c2ccccc2CCC13 (configuration not stated)    > 10 µM
Cc1cc(O)c(C(C)C)cc1C1(c2cc(C(C)C)c(O)cc2C)OC(=O)c2ccccc21    18.4 µM
O=C(Nc1cccc(Nc2ncc(Br)c(NCCc3cnc[nH]3)n2)c1)N1CCCC1    33.2 µM

(Q) Field request: TGI | item: COc1ccc(OC)c(C2SCC(=O)N2NC(=O)C(O)c2ccccc2)c1 (configuration not stated)
(A) > 100 µM

(Q) Entry O=c1onc2c3ccccc3ncn12 has what TGI?
(A) > 100 µM

(Q) For the molecule shown here, Cc1ccc(NC(=O)c2ccccc2C(=O)O)cc1C , give the reported TGI.
(A) > 100 µM

* * *

- Tested on: MDA-MB-435
- assay: NCI tumour cell line growth inhibition, 48 h
Where a SMILES comes first, the peptide text is derived from it. Bridges are numbered along the chain shown (N, C = ends). Roman numbers before positions name the chains, in order. [ ]: non-standard residue; d: D form. The star is where a group is joined. Quinoxaline2carbonyl = O=C(c1cnc2ccccc2n1)*; NMeV = CN[CH](C(=O)O)C(C)C; NMeC = CN[CH](CS)C(=O)O
assay_readout: TGI

CC1(O)OC(=O)C2=C1CCC1C2CCC2(C)C(O)CCC12 (stereo not given)    > 100 µM
CC(C)(C)c1cc(C2COC(c3cc(C(C)(C)C)c(O)c(C(C)(C)C)c3)CO2)cc(C(C)(C)C)c1O (stereo not given)    > 100 µM
COc1ccc2oc(=N)c(C(=O)Nc3ccccn3)cc2c1    > 100 µM
O=C1NC(=S)N(c2ccccc2)C1=O    > 100 µM
COc1ccc(-c2cc(=O)c3c(OC)c(OC)c(OC)c(OC)c3o2)cc1    > 100 µM
Cc1ccc(N=Nc2c(O)c(C(=O)Nc3ccccc3)cc3ccccc23)c([N+](=O)[O-])c1    > 100 µM
CC1OC(OC2C(OC(=O)[C@@H]3CC(C)(C)C[C@H]4C5=CC[C@@H]6[C@@]7(C)C[C@H](O)[C@H](OC8OC(CO)C(O)C(O)C8O)[C@@](C)(CO)[C@@H]7[C@H](O)C[C@@]6(C)[C@]5(C)CC[C@@]34C)OCC(O)C2O)C(O)C(O)C1O (stereo not given in full)    > 7.5 µM
C[C@@H]1O[C@@H](OC[C@H]2O[C@@H](OCCc3ccc(O)c(O)c3)[C@H](O)[C@@H](O)[C@@H]2OC(=O)/C=C/c2ccc(O)c(O)c2)[C@H](O)[C@H](O)[C@H]1O    > 100 µM

Pending compound:
(Q) Given the entry CC1NC(=O)C(NC(=O)c2cnc3ccccc3n2)COC(=O)C(C(C)C)N(C)C(=O)C2CSSCC(C(=O)N(C)C(C(C)C)C(=O)OCC(NC(=O)c3cnc4ccccc4n3)C(=O)NC(C)C(=O)N2C)N(C)C1=O (stereo not given) (I: Quinoxaline2carbonyl-SA[NMeC][NMeV] / II: Quinoxaline2carbonyl-SA[NMeC][NMeV]; ester I:1-II:C, I:C-II:1; disulfide I:3-II:3; configuration not given here) , report its measured TGI.
(A) < 0.01 µM

* * *

- System: SF-268 CNS
- assay: NCI tumour cell line growth inhibition, 48 h
assay_readout: TGI

Worked set:
Cc1cc2c(c(C(=O)O)c1C)-c1cccc(F)c1C2=O    > 100 µM
O=C1NC(=S)N(c2ccccc2)C1=O    > 100 µM
COC(=O)CC1NC(=O)C1C1(C)OCCO1 (configuration not stated)    > 100 µM
CC1=NN(C(=O)CSc2nc3ccc(I)cc3c(=O)n2Cc2ccccc2)C(=O)C1    69.5 µM
COc1cc(/C=C(/C#N)C(N)=O)ccc1O    > 100 µM
O=C([CH-]C(=O)c1ccccc1)c1ccccc1.O=C([CH-]C(=O)c1ccccc1)c1ccccc1.[OH-].[OH-].[Ti+4]    > 100 µM

(Q) Form entry - test system: SF-268 CNS; read-out: TGI; molecule: CC(C)(C)c1cc(C2COC(c3cc(C(C)(C)C)c(O)c(C(C)(C)C)c3)CO2)cc(C(C)(C)C)c1O (configuration not stated)
(A) > 100 µM

(Q) Under SF-268 CNS: TGI value of CCO/C=C1\N=C(c2ccccc2Br)OC1=O ?
(A) > 100 µM

(Q) Field: TGI (SF-268 CNS). Entry: Fc1ccccc1C1SCc2nc3cc4ccccc4cc3n21 (configuration not stated)
(A) > 100 µM
